- assay_method_text: A CellTox Green Cytotoxicity Assay to monitor cytotoxicity in HEK293 cells - 24 hour (AID 1224875); further: nearly all actives have a fitted effect of over 45% in size
- reported_conditions: CellTox Green fluorescence; series mostly up to 76.8 µM
Records with an inconclusive call do not appear. Activity calls are given as the source filed them. The call rests on the fitted dose curve; in most records, active means well fitted activation curve with a large enough effect in the repeat runs; inconclusive means weak or mixed curves; inactive means flat fitted curve, though single readings scatter.
# valid calls are y for active, n for inactive; nothing else

Cc1nc(N)nc(N)c1-c1ccc(Cl)c(Cl)c1; n

Query compound follows.
Lookup: What was the test verdict on CCOC(=O)C(Br)c1ccccc1 (stereo not drawn) ?
Found: n

----------
- assay_method_text: qHTS assay to identify small molecule antagonists of the sonic hedgehog signaling (Shh) pathway - cell viability counter screen (AID 1259367); further: nearly all actives have a fitted effect of over 55% in size
- reported_conditions: NIH/3T3 Gli1-Luc viability, CellTiter-Fluor, 24 h; series mostly up to 92.4 µM
Records with an inconclusive call do not appear. Activity calls are given as the source filed them. Calls come from the whole dose curve; as a rule, active = well fitted cell-killing curve with a large enough effect in the repeat runs; inconclusive = weak or mixed curves, or effect the other way; inactive = no such curve, though single readings can be large or run the other way.
Your reply should match one of these outcome classes. y (active), n (inactive)

As a guide, the following entries are already answered.
COc1cc(Cl)ccc1Cl; n
Cc1ccc(C=O)s1; n
O=[N+]([O-])c1nccn1CO[C@@H](CO)[C@H](O)CO; n

Lookup: Answer briefly: the call reported for CN(CC1(C)CCCO1)S(=O)(=O)c1ccc(Cl)c(S(N)(=O)=O)c1 (configuration not stated) in this assay.
Found: n

Lookup: Entry CC(C)NCC(O)COc1ccc(CCOCC2CC2)cc1 (configuration not stated) : call = ?
Found: n

Lookup: What is the recorded call for this molecule in the test? CC(C)C(=O)OCC(C)(C)C(O)C(C)C (configuration not stated)
Found: n

Lookup: Could you kindly confirm the outcome this assay logged for CC1CN(c2ccccc2)NC1=O (configuration not stated) ?
Found: n

Lookup: Write down the call the test reported for this molecule. Item: CC(C)(C)C1CCCCC1=O (configuration not stated)
Found: n

Lookup: Which result was noted for this molecule in the test: `CCNCCO`
Found: n

Every entry's value here was drawn from PubChem BioAssay (Tox21).
